src = patent US20070212355A1

- assayed_system: mutated human GLP-2R (Homo sapiens, UniProt O95838, E512D/G511A/L513V)
- Construct: expressed in transfected cells; host or cells: HEK 293E clonal cell line
- Sequence (O95838 1-553 G511A/E512D/L513V): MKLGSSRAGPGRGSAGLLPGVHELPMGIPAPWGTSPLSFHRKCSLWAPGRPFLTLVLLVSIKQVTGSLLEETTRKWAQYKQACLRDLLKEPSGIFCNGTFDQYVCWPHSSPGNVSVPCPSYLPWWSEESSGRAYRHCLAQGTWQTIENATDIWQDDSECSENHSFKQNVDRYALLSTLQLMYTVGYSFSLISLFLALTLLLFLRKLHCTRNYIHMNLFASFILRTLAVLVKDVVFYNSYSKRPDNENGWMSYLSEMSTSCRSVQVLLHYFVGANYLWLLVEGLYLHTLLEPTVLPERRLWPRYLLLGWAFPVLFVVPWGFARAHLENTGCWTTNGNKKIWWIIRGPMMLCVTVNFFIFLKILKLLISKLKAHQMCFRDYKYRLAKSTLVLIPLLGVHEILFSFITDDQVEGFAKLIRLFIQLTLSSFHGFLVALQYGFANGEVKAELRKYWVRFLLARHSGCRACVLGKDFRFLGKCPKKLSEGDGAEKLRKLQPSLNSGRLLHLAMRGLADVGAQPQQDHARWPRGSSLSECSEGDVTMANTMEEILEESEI
- assay_explanation: cAMP expression assay in HEK 293E clonal cell line expressing mutated human GLP-2R
- Assay type: cell-based
- condition_description: Table 1; mimetibodies with variable linker length / V2 variant; read-out: EC50
Ends that are not written are not given here.
The label yes (1) is reserved for EC50 strictly under 20 nM; no (0) covers values equal to or above it.

I wonder whether SEQ ID NO: 7: A2G GLP-2 mimetibody linker variant; core HGDGSFSDEMNTILDNLAARDFINWLIQTKITDGGGGSGGGGSCPPCP (cysteine pairing not given here; also: core of a mimetibody, fused to further protein chains) has EC50 below 20 nM. Can you tell? no (0)

I wonder whether SEQ ID NO: 6: A2G GLP-2 mimetibody linker variant; core HGDGSFSDEMNTILDNLAARDFINWLIQTKITDGGGGSCPPCP (cysteine pairing not given here; also: core of a mimetibody, fused to further protein chains) has EC50 below 20 nM. Can you tell? no (0)

I wonder whether SEQ ID NO: 8: A2G GLP-2 mimetibody linker variant; core HGDGSFSDEMNTILDNLAARDFINWLIQTKITDGGGGSGGGGSGGGGSCPPCP (cysteine pairing not given here; also: core of a mimetibody, fused to further protein chains) has EC50 below 20 nM. Can you tell? yes (1)

I wonder whether SEQ ID NO: 11: A2G GLP-2 mimetibody V2 region variant; core […] (HGDGSFSDEMNTILDNLAARDFINWLIQTKITDGSGGGSGALVAVSSESKYGPPCPPCP; chains of the parent or of the whole protein) has EC50 below 20 nM. Can you tell? yes (1)

I wonder whether SEQ ID NO: 9: A2G GLP-2 mimetibody linker variant; core HGDGSFSDEMNTILDNLAARDFINWLIQTKITDGGGGSGGGGSGGGGSGGGGSCPPCP (cysteine pairing not given here; also: core of a mimetibody, fused to further protein chains) has EC50 below 20 nM. Can you tell? yes (1)
